Cited source: the Deep4Chem optical property database

- methodSummary: photoluminescence quantum yield (fraction); solvent given as SMILES
- testContext: in CN(C)C=O
The label is criterion met for photoluminescence quantum yield below 0.4 and criterion not met for photoluminescence quantum yield equal to or exceeding 0.4.

API: query returns whether the compound falls strictly under 0.4 in photoluminescence quantum yield. Query: Cc1ccccc1/C(C#N)=C/c1ccc(N(C)C)cc1
criterion met

API: query returns whether the compound falls strictly under 0.4 in photoluminescence quantum yield. Query: COc1ccc(C2=C3C(C)=CC(C)=[N+]3[B-](F)(F)n3c(/C=C/c4ccc(N(C)C)cc4)cc(C)c32)cc1
criterion met

API: query returns whether the compound falls strictly under 0.4 in photoluminescence quantum yield. Query: COC(=O)C(Cc1ccc2oc(-c3ccc(N(C)c4ccccc4)cc3)nc2c1)NC(=O)OC(C)(C)C (stereo unspecified)
criterion met

API: query returns whether the compound falls strictly under 0.4 in photoluminescence quantum yield. Query: Fc1cc(-c2ccc(-c3nc4cc(Br)ccc4[nH]3)cc2)ccc1-c1ccc(-c2nc3cc(Br)ccc3[nH]2)cc1
criterion not met

API: query returns whether the compound falls strictly under 0.4 in photoluminescence quantum yield. Query: CCOc1cc2c(cc1/C=C/C1=CC(=C(C#N)C#N)CC(C)(C)C1)c1ccccc1n2CC
criterion met

API: query returns whether the compound falls strictly under 0.4 in photoluminescence quantum yield. Query: COc1ccc(C2CC(c3ccc(O)cc3)=NN2c2ccc(S(N)(=O)=O)cc2)cc1 (stereo unspecified)
criterion not met

API: query returns whether the compound falls strictly under 0.4 in photoluminescence quantum yield. Query: O=C1c2ccccc2-c2ccc(N3CCOCC3)c3cccc1c23
criterion met

API: query returns whether the compound falls strictly under 0.4 in photoluminescence quantum yield. Query: CC(C)(C)c1ccc2oc(-c3ccc(-c4nc5cc(C(C)(C)C)ccc5o4)s3)nc2c1
criterion not met

API: query returns whether the compound falls strictly under 0.4 in photoluminescence quantum yield. Query: CC1(C)CCc2c(c3ccccc3c3nc4c5c(c6ccccc6c4nc23)OC(C)(C)CC5)O1
criterion not met

API: query returns whether the compound falls strictly under 0.4 in photoluminescence quantum yield. Query: COCCOc1cc(C=O)c(OCCOC)cc1C=O
criterion met

API: query returns whether the compound falls strictly under 0.4 in photoluminescence quantum yield. Query: CCCN(c1ccccc1)c1ccc2c(c1)C(CC)(CC)c1cc(/C=C/c3ccc(/C=C(\C#N)C(=O)O)s3)ccc1-2
criterion not met

API: query returns whether the compound falls strictly under 0.4 in photoluminescence quantum yield. Query: c1ccc2c(c1)[nH]c1cccnc12
criterion met

API: query returns whether the compound falls strictly under 0.4 in photoluminescence quantum yield. Query: O=C([O-])c1ccc(C(=O)[O-])c2cc3ccccc3cc12
criterion met

API: query returns whether the compound falls strictly under 0.4 in photoluminescence quantum yield. Query: CCCCCCCCN1c2ccccc2Sc2cc(/C=C/c3ccc(N(c4ccc(/C=C/c5ccc6c(c5)Sc5ccccc5N6CCCCCCCC)cc4)c4ccc(/C=C/c5ccc(/C=C/c6ccc(N(c7ccc(/C=C/c8ccc9c(c8)Sc8ccccc8N9CCCCCCCC)cc7)c7ccc(/C=C/c8ccc9c(c8)Sc8ccccc8N9CCCCCCCC)cc7)cc6)c6nsnc56)cc4)cc3)ccc21
criterion met

API: query returns whether the compound falls strictly under 0.4 in photoluminescence quantum yield. Query: CN(C)CCN(Cc1c2ccccc2cc2ccccc12)c1ccc([N+](=O)[O-])cc1[N+](=O)[O-]
criterion met

API: query returns whether the compound falls strictly under 0.4 in photoluminescence quantum yield. Query: CCn1c2ccccc2c2cc(/C=C/c3cc(/C=C/c4ccc5c(c4)c4ccccc4n5CC)ncn3)ccc21
criterion not met

API: query returns whether the compound falls strictly under 0.4 in photoluminescence quantum yield. Query: COC(=O)c1ccc2ccc3cccc4ccc1c2c34
criterion not met

API: query returns whether the compound falls strictly under 0.4 in photoluminescence quantum yield. Query: COc1cc(N(c2ccccc2)c2ccccc2)ccc1C=C(C#N)C#N
criterion met

API: query returns whether the compound falls strictly under 0.4 in photoluminescence quantum yield. Query: c1ccc2c(c1)[nH]c1c3[nH]c4ccccc4c3c3nsnc3c21
criterion met

API: query returns whether the compound falls strictly under 0.4 in photoluminescence quantum yield. Query: COC(=O)c1ccccc1-c1c2ccc(=[NH2+])cc-2oc2cc(N)ccc12
criterion not met

API: query returns whether the compound falls strictly under 0.4 in photoluminescence quantum yield. Query: CN(C)c1ccc(/C=C/c2nc3ccc(N(C)C)cc3oc2=O)cc1
criterion met

API: query returns whether the compound falls strictly under 0.4 in photoluminescence quantum yield. Query: CN(C)c1ccc2nc(/C=C/c3ccccc3)c(=O)oc2c1
criterion not met

API: query returns whether the compound falls strictly under 0.4 in photoluminescence quantum yield. Query: CCCCCCCCCCCCCCCCCCN1C(=O)c2ccc3c4ccc5c6c(ccc(c7ccc(c2c37)C1=O)c64)C(=O)N(CCCCCCCCCCCCCCCCCC)C5=O
criterion not met

API: query returns whether the compound falls strictly under 0.4 in photoluminescence quantum yield. Query: CCn1c2ccccc2c2cc(-c3cc(-c4ccc5c(c4)c4ccccc4n5CC)nc(S(C)(=O)=O)n3)ccc21
criterion not met

API: query returns whether the compound falls strictly under 0.4 in photoluminescence quantum yield. Query: Cc1nc2cccc(-c3nc4ccccc4[nH]3)c2c(=O)[nH]1
criterion met

API: query returns whether the compound falls strictly under 0.4 in photoluminescence quantum yield. Query: COc1cc2c(cc1/C=C(\C#N)c1nc3ccccc3s1)c1ccccc1n2C
criterion met

API: query returns whether the compound falls strictly under 0.4 in photoluminescence quantum yield. Query: CC[N+]1(CC)CN2C(=N1)C(C(=O)[O-])=Cc1ccccc12
criterion met

API: query returns whether the compound falls strictly under 0.4 in photoluminescence quantum yield. Query: CC1=CC(C)=[N+]2C1=Cc1c3ccccc3c(C#Cc3ccsc3)n1[B-]2(F)F
criterion not met

API: query returns whether the compound falls strictly under 0.4 in photoluminescence quantum yield. Query: CCC1=C(C)C2=C(c3ccc(-c4c5ccccc5c(-c5ccccc5)c5ccccc45)cc3)c3c(C)c(CC)c(C)n3[B-](F)(F)[N+]2=C1C
criterion met

API: query returns whether the compound falls strictly under 0.4 in photoluminescence quantum yield. Query: N#C/C(=N/Nc1ccc(C#N)cc1)c1nc(-c2ccccc2)cs1
criterion met

API: query returns whether the compound falls strictly under 0.4 in photoluminescence quantum yield. Query: COc1cc(/C=C2/SC(=O)NC2=O)cc(OC)c1O
criterion met

API: query returns whether the compound falls strictly under 0.4 in photoluminescence quantum yield. Query: COc1ccc(C#Cc2ccc(C#Cc3ccc(C#Cc4ccccc4C#N)cc3C#N)cc2C#N)cc1
criterion not met

API: query returns whether the compound falls strictly under 0.4 in photoluminescence quantum yield. Query: O=C1NC(=O)c2c1c1c3ccccc3[nH]c1c1[nH]c3ccccc3c21
criterion met

API: query returns whether the compound falls strictly under 0.4 in photoluminescence quantum yield. Query: CCCCCCOc1ccc(C#Cc2ccc(C#CC#Cc3ccc(C#Cc4ccc(OCCCCCC)c(OCCCCCC)c4)c4nsnc34)c3nsnc23)cc1OCCCCCC
criterion met

----------
Please go through the items and note down their photoluminescence quantum yield.
- methodSummary: photoluminescence quantum yield (fraction); solvent given as SMILES
- testContext: in C1CCCCC1
Output: the number by itself.

Input Cc1ccc(C2=C3C=CC(C#Cc4ccccc4)=[N+]3[B-](F)(F)n3c(C#Cc4ccccc4)ccc32)cc1 . Output photoluminescence quantum yield: 1

Input CCCCC(CC)CN1C(=O)c2cccc3c(C#Cc4ccc(N(c5ccccc5)c5ccc(C#Cc6ccc7c8c(cccc68)C(=O)N(CC(CC)CCCC)C7=O)cc5)cc4)ccc(c23)C1=O (stereo not given) . Output photoluminescence quantum yield: 0.93

Input COc1ccc([Si](C)(C)C)c2ccccc12 . Output photoluminescence quantum yield: 0.65

Input CC1=[N+]2C(=C(c3ccc(C=O)cc3)c3ccc(C)n3[B-]2(F)F)C=C1c1cc2n(c1)[B-](F)(F)[N+]1=CC=CC1=C2c1c(C)cc(C)cc1C . Output photoluminescence quantum yield: 0.92

Input Cc1cc(C)c(C2=C3C=C(c4ccc(C(C)(C)C)cc4)C(c4ccc(C(C)(C)C)cc4)=[N+]3[B-](F)(F)n3c2cc(-c2ccc(C(C)(C)C)cc2)c3-c2ccc(C(C)(C)C)cc2)c(C)c1 . Output photoluminescence quantum yield: 0.77

Input CCN(CC)c1ccc2c(c1)oc(=O)c1cnc3c(cnn3-c3ccccc3)c12 . Output photoluminescence quantum yield: 0.926

Input COc1cc(/C=C2/SC(=O)NC2=O)ccc1O . Output photoluminescence quantum yield: 0.018

Input Cc1cc2ccccc2cc1C . Output photoluminescence quantum yield: 0.56

Input CC1(C)c2cc(C#N)ccc2-c2ccc(N3c4ccccc4Oc4ccccc43)cc21 . Output photoluminescence quantum yield: 0.044

Input Cc1ccccc1C1=C2C=c3c(oc4ccccc34)=[N+]2[B-](F)(F)n2c1cc1c3ccccc3oc12 . Output photoluminescence quantum yield: 0.88

Input CN(C)CCN(Cc1c2ccccc2cc2ccccc12)c1ccc([N+](=O)[O-])cn1 . Output photoluminescence quantum yield: 0.0003

Input CN(CC(O)c1cccc(O)c1)c1ccc([N+](=O)[O-])c(C2CC(c3cccc4ccccc34)=NN2c2ccccc2)c1 (stereo not given) . Output photoluminescence quantum yield: 0.16

Input c1ccccc1 . Output photoluminescence quantum yield: 0.14

Input CC1=[N+]2C(=C(c3ccccc3)c3ccc(C)n3[B-]2(F)F)C=C1 . Output photoluminescence quantum yield: 0.29

Input C1=C(c2ccccc2)B(c2ccccc2)Nc2c1ccc1ccccc21 . Output photoluminescence quantum yield: 0.51

Input CC(C)c1ccc(/C=C/c2nc3ccc(N(C)C)cc3s2)cc1 . Output photoluminescence quantum yield: 0.51

Input CC1=N/C(=C\c2ccc(N(C)C)cc2)C(=O)N1C . Output photoluminescence quantum yield: 0.0001

Input CCNc1ccc2c(C(F)(F)F)cc(=O)oc2c1 . Output photoluminescence quantum yield: 0.74

Input COC(=O)C(Cc1ccc2oc(-c3ccc(N(C)c4ccccc4)cc3)nc2c1)NC(=O)OC(C)(C)C (stereo not given) . Output photoluminescence quantum yield: 0.998

Input Cc1cc(=O)oc2c1cc(Br)c1occ(C)c12 . Output photoluminescence quantum yield: 0.0006

Input O=C1Cc2ccc(cc2)CC(=O)Cc2ccc(c3nsnc23)C1 . Output photoluminescence quantum yield: 0.85

Input Cn1nc(-c2ccccc2)c2nc3cc(Cl)ccc3nc21 . Output photoluminescence quantum yield: 0.58

Input FC(F)(F)c1cc2n(n1)[B-]1(c3ccccc3Oc3ccccc31)[n+]1ccc3ccccc3c1-2 . Output photoluminescence quantum yield: 0.0026

Input COc1c2ccccc2c(OC)c2c1c1ccc(C(F)(F)F)cc1n2C . Output photoluminescence quantum yield: 0.35

Input CC1=[N+]2C(=C(c3ccc(N4CCCCC4)cc3)c3ccc(C)n3[B-]2(F)F)C=C1 . Output photoluminescence quantum yield: 0.33

Input COc1ccc2c3c(c4ccc(OC)cc4c2c1)C(C)(C)c1ccc2ccccc2c1-3 . Output photoluminescence quantum yield: 0.26

Input CC1(C)CC(NCc2ccc3ccc4cccc5ccc2c3c45)CC(C)(C)N1[O] . Output photoluminescence quantum yield: 0.07

Input c1cc2c3c(c1)OCCCCCCOc1cccc(c1-c1c4ccccc4c-3c3ccccc13)OCCCCCCO2 . Output photoluminescence quantum yield: 0.93

Input Cc1ccc(C2=C3C=CC(C#Cc4ccccc4)=[N+]3[B-](F)(F)n3c(Cl)ccc32)cc1 . Output photoluminescence quantum yield: 1

Input COc1ccc(OC)cc1 . Output photoluminescence quantum yield: 0.22
